- tested_target: T1, hIL10Rb-his (Sino Biological, Catalog#10945) (human, UniProt Q08334 20-220)
- T1 construct: Bought; also called Sino Biological cat#10945-H08H; not shown: C-terminal poly-His tag
- T1 sequence: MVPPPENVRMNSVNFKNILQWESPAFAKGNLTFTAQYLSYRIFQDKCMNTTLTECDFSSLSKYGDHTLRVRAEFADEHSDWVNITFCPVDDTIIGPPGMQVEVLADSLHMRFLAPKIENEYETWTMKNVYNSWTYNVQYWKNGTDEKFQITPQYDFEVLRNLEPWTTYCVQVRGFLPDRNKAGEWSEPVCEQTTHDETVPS
- assay_remarks: SPR Biacore T200; mono-Fc VHH captured on Protein A chip, hIL10Rb-his analyte; 1:1 Langmuir fit
observable: kon (M⁻¹ s⁻¹)
Return type: number; implicit unit M⁻¹ s⁻¹.

Exam item: Give the reported kon for this binder. hIL-10Rb_VHH3 Mono-Fc (Fc fusion, Mono-Fc VHH captured on Protein A; not shown: mono-Fc part) QVQLQESGGGSVQAGGSLRLSCAASRYTYNSYCMGWFRQAPGKEREGVATIDSDGMTRYADSVKGRFTISKDNAKNTLYLQMNSLKPEDTAMYYCAADADCTIAAMTTNPLGQGTQVTVSS
Marked response: 92900

Exam item: Give the reported kon for this binder. hIL-10Rb_VHH27 Mono-Fc (Fc fusion, Mono-Fc VHH captured on Protein A; not shown: mono-Fc part) QVQLQESGGGSVQTGGSLRLSCAASGYTYLRGCMGWFRQAPGKEREGVAVMDVVGDRRSYIDSVKGRFTISRDNAANSVYLQMDNLKPEDTAMYYCTAGPNCVGWRSGLDYWGQGTQVTVSS
Marked response: 1.07e+07

Exam item: Give the reported kon for this binder. hIL-10Rb_VHH12 Mono-Fc (Fc fusion, Mono-Fc VHH captured on Protein A; not shown: mono-Fc part) QVQLQESGGGSVQAGGSLRLSCAASGYTYSSYCMGWFRQAPGKEREGVAHIDSDGSTSYADSVKGRFTISKDNAKNTLYLQMNSLKPEDTAMYYCAADPIPGPGYCDGGPNKYWGQGTQVTVSS
Marked response: 111000

Exam item: Give the reported kon for this binder. hIL-10Rb_VHH26 Mono-Fc (Fc fusion, Mono-Fc VHH captured on Protein A; not shown: mono-Fc part) QVQLQESGGGSVQAGGSLRLSCAASGYSYSSYCMGWFRQAPGKEREGVATIDSDGMTRYADSVKGRFTISKDNAKNTLYLQMNSLKPEDTAMYYCAAPLYDCDSGAVGRNPPYWGQGTQVTVSS
Marked response: 67800

Exam item: Give the reported kon for this binder. hIL-10Rb_VHH15 Mono-Fc (Fc fusion, Mono-Fc VHH captured on Protein A; not shown: mono-Fc part) QVQLQESGGGSVQAGGSLRLSCTVSRYTASVNYMGWFRQAPGKEREGVATIFTGAGTTYYANSVKGRFTISRDNAKNTAYLQMNSLKPEDTAIYYCAVDFRGGLLYRPAYEYTYRGQGTQVTVSS
Marked response: 71800

Exam item: Give the reported kon for this binder. hIL-10Rb_VHH1 Mono-Fc (Fc fusion, Mono-Fc VHH captured on Protein A; not shown: mono-Fc part) QVQLQESGGGSVQAGGSLRLSCAASGYTYSSGCMGWFRQAPGKEREAVAAINSDGSTSYADSVKGRFTISKDNAKNTLYLQMNSLKPEDTAMYYCAAEPYCSGGYPRWSVAEFGYWGQGTQVTVSS
Marked response: 175000
